Quick list: binding relative to wild-type Fc per entry.
Molecular target: T1, CD32B (UniProt P31994 43-217, limits assumed)
T1 construct: Only the name is printed; also called FcγRIIB
T1 sequence (looked up): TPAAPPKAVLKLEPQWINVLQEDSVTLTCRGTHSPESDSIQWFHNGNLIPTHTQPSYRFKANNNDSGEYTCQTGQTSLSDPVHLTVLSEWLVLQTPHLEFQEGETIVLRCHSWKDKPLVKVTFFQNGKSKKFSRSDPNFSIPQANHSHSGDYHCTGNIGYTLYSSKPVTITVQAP
Assay: assay not named in Table 4
MEASURE NAME: binding relative to wild-type Fc

Fc variant F243I R292P Y300L V305I P396L (other, UniProt P01857-1 104-330, looked up, domain: Fc; Written as printed (F243I); may be a misprint of F243L) DKTHTCPPCPAPELLGGPSVFLIPPKPKDTLMISRTPEVTCVVVDVSHEDPEVKFNWYVDGVEVHNAKTKPPEEQYNSTLRVVSILTVLHQDWLNGKEYKCKVSNKALPAPIEKTISKAKGQPREPQVYTLPPSRDELTKNQVSLTCLVKGFYPSDIAVEWESNGQPENNYKTTPLVLDSDGSFFLYSKLTVDKSRWQQGNVFSCSVMHEALHNHYTQKSLSLSPGK    1.05
Fc variant R255L D270E P396L (other, UniProt P01857-1 104-330, looked up, domain: Fc) DKTHTCPPCPAPELLGGPSVFLFPPKPKDTLMISLTPEVTCVVVDVSHEEPEVKFNWYVDGVEVHNAKTKPREEQYNSTYRVVSVLTVLHQDWLNGKEYKCKVSNKALPAPIEKTISKAKGQPREPQVYTLPPSRDELTKNQVSLTCLVKGFYPSDIAVEWESNGQPENNYKTTPLVLDSDGSFFLYSKLTVDKSRWQQGNVFSCSVMHEALHNHYTQKSLSLSPGK    0.87
Fc variant D270E G316D R416G (other, UniProt P01857-1 104-330, looked up, domain: Fc) DKTHTCPPCPAPELLGGPSVFLFPPKPKDTLMISRTPEVTCVVVDVSHEEPEVKFNWYVDGVEVHNAKTKPREEQYNSTYRVVSVLTVLHQDWLNDKEYKCKVSNKALPAPIEKTISKAKGQPREPQVYTLPPSRDELTKNQVSLTCLVKGFYPSDIAVEWESNGQPENNYKTTPPVLDSDGSFFLYSKLTVDKSGWQQGNVFSCSVMHEALHNHYTQKSLSLSPGK    0.78
